Tested on: HOP-92 NSCLC
Assay: NCI-60 one-dose screen, 48 h
Conditions: 10 µM unless noted
About 83,000 compounds went through this panel and 20% of them were active in at least one assay; those are over-represented in the sample as a whole. The source made the active and inactive calls. Rule for the calls: active = growth percent below 10; inactive = the rest.
Log the outcome using a class from True (active), False (inactive)

Some solved entries appear below for comparison.
compound	assignedClass
COc1cc(-c2csc(NC(=O)c3ccc(N4CCOCC4)c(C(F)(F)F)c3)n2)cc(OC)c1OC	False
CSc1nc(N)c(NS(=O)(=O)c2ccc(C(C)=O)cc2)c(=O)[nH]1	False
COc1ccc(/C=C/C(=O)c2ccc(Nc3ccnc4cc(Cl)ccc34)cc2)cc1	False
Cc1ccc(C(=O)c2ccc(CC(=O)N/N=C/c3ccccc3O)n2C)cc1	False
CCC(C)(C)C(=O)O[C@H]1C[C@@H](C)C=C2C=C[C@H](C)[C@H](CC[C@@H]3CC(SCCN)CC(=O)O3)[C@H]21 (stereo not given in full)	False
CC(C)c1ccc(-n2c(=S)[nH]c3sc4cc(O)ccc4c3c2=O)cc1	False

Attention now turns to another entry.
Query string: I would be grateful if you could indicate the recorded call for `Nc1ncc(-c2ccc3ncnc(Nc4cccc(Cl)c4)c3c2)cn1` .
Result string: False

---

Tested on: SF-539 CNS
Assay: NCI-60 one-dose screen, 48 h (100 = growth as untreated, 0 = no growth, -100 = all killed)
Settings: 10 µM unless noted
Experimental: Cells are grown in 96 well plates and exposed to the test compound for 48 hours. Compounds are tested at a single concentration, which is 10^-5 M for most compounds. The reported endpoint is percent growth (GI% or GIPRCNT), where numbers from 0 - 100% represent growth inhibition, and numbers from -100% - 0 represent cell death. For example, a value of 40 represents 60% growth inhibition. A value of 0 means no net growth occurred over the course of the experiment. […]
The panel holds about 83,000 compounds, 20% with a hit somewhere; the sample as a whole holds those more often.
Label criterion met when growth is at or above 90%; anything below gets criterion not met.

Some solved entries appear below for comparison.
molecule	targetEntity	assignedClass
CNC(=O)c1ccccc1Oc1nc(Nc2cc(OC)c(OC)c(OC)c2)ncc1Br	SF-539 CNS	criterion not met
COc1cc2ncnc(Nc3ccc(F)c(Cl)c3)c2cc1OCC(=O)N1CCN(c2ccccc2)CC1	SF-539 CNS	criterion met
C=CC(=O)N1CCN(c2cccc(Oc3nccc(Nc4nnc(-c5ccc(Br)cc5)s4)n3)c2)CC1	SF-539 CNS	criterion not met

Query string: Textbook exercise: given the entry `O=C(Nc1nc2cc(C(=O)N3CCN(C(c4ccccc4)c4ccccc4)CC3)ccc2o1)c1ccc(NC2CCCCC2)c([N+](=O)[O-])c1` , state whether its growth is greater than or equal to 90%.
Result string: criterion not met

Query string: Do the same for `CN(C)c1ccc(C(=O)OCCCCCCl)cc1` please
Result string: criterion met

Query string: Do the same for Cc1cc(C)c2c(c1)N(C)c1ncnc(-n3cnc4cc(C)ccc43)c1CC2C (stereo not given) please
Result string: criterion not met

Query string: Do the same for `O=C(c1ccccc1)c1ccc(C2CCCCC2)cc1` please
Result string: criterion met

Query string: Do the same for `Cc1ccc(C)n1-c1ccccc1-n1c(C)ccc1C` please
Result string: criterion met

Query string: Do the same for `COc1cc(/C=C/C(=O)c2ccc(F)cc2)ccc1OCCCCOc1ccc(/C=C/C(=O)c2c(C)nc3ccccc3c2C)cc1OC` please
Result string: criterion met

Query string: Do the same for CC(=O)N1N=C(c2ccc(C(F)(F)F)c(F)c2)CC1c1[nH]c(C)c(C(=O)NCC(F)(F)F)c1C (stereo not given) please
Result string: criterion not met

Query string: Do the same for C=C1CC[C@@H]2[C@](C)(COC(C)=O)[C@H](OC(C)=O)CC[C@@]2(C)[C@@H]1CC(Nc1ccc(S(=O)(=O)Nc2ncccn2)cc1)C1=CCOC1=O (stereo not given in full) please
Result string: criterion not met

---

Tested on: UACC-62 melanoma
Test: NCI-60 one-dose screen, 48 h (100 = growth as untreated, 0 = no growth, -100 = all killed)
Conditions: 10 µM unless noted
Compounds without any hit were thinned out: in the full panel of roughly 83,000, 20% have a hit.
Please use satisfied for growth under 50% and not satisfied for everything else, ties included.

compound	targetEntity	assignedClass
O=S(=O)(NCCCNc1nccc(-c2c(-c3ccc(F)c(O)c3)nc3occn23)n1)c1ccc(Cl)cc1	UACC-62 melanoma	satisfied
Clc1ccc2c(NC3CCC(N4CCOCC4)CC3)ccnc2c1 (stereo not given)	UACC-62 melanoma	not satisfied
CC(=O)N1N=C(c2ccc(Nc3nc(Nc4ccccc4)nc(Nc4ccccc4)n3)cc2)CC1c1ccccc1 (stereo not given)	UACC-62 melanoma	not satisfied
COc1ccc(NC(=O)c2sc3nc(C)c(C(=O)/C=C/c4ccccc4)cc3c2N)cc1	UACC-62 melanoma	not satisfied
O=C(NCc1ccc(Cl)cc1Cl)C1CCC(=O)N1c1cccs1 (stereo not given)	UACC-62 melanoma	not satisfied
N#C/C(=C\c1c(-c2ccccc2)[nH]c2ccccc12)C(N)=O	UACC-62 melanoma	not satisfied
CSc1nnc(-c2cc3c([nH]c4ccccc43)c(-c3cccc(O)c3)n2)n1-c1ccccc1	UACC-62 melanoma	satisfied
C=C1CC[C@@H]2[C@](C)(COC(C)=O)[C@H](OC(C)=O)CC[C@@]2(C)[C@@H]1CC(Nc1ccc(S(=O)(=O)Nc2ncccn2)cc1)C1=CCOC1=O (stereo not given in full)	UACC-62 melanoma	satisfied

Query string: Record `CCOC(=O)c1cc2c(n1C)-c1nc(NC(C)=O)sc1CCC2` : is its growth strictly below 50%?
Result string: not satisfied

Query string: Do the same for `O=C(COc1ccc(-c2nc3cc(Cl)c(Cl)cc3[nH]2)cc1)N=Nc1c(O)[nH]c2ccc(Cl)cc12` please
Result string: not satisfied

---

Tested on: SK-MEL-28 melanoma
Assay: NCI-60 one-dose screen, 48 h
Conditions: 10 µM unless noted
The panel holds about 83,000 compounds, 20% with a hit somewhere; the sample as a whole holds those more often. Active and inactive are the calls of the source. How the source made its calls: active means growth percent below 10; inactive means the rest.
Log the outcome using a class from active, inactive

Some solved entries appear below for comparison.
compound	assignedClass
O=S(=O)(Nc1cc(F)cc(Cl)c1)c1ccc(-c2cnc(C3CC3)o2)cc1	inactive
CC(C)c1ccc(C(=O)Nc2nc3ccc(O)c(CN(C)C)c3s2)cc1	inactive
c1ccc([P+](c2ccccc2)(c2ccccc2)c2ccc3c4ccc([P+](c5ccccc5)(c5ccccc5)c5ccccc5)c5cccc(c6cccc2c63)c54)cc1	active

Query string: I would be grateful if you could indicate the recorded call for `C[C@@H](CO)[C@@H]1CCC=C2CC[C@]3(C)[C@H](CC[C@@H]4[C@@]5(C)CCCNC(C)(C)[C@@H]5CC[C@]43C)[C@H]21` .
Result string: inactive

Query string: Do the same for `Cn1cc(C(=O)c2nc(-c3c[nH]c4ccccc34)no2)c2cc(F)ccc21` please
Result string: inactive

Query string: Do the same for `Cc1cccc(CNc2c3ccccc3nc3ccccc23)c1` please
Result string: inactive

---

System: UACC-62 melanoma
Assay: NCI-60 one-dose screen, 48 h
Conditions: 10 µM unless noted
This is part of a sample that, as a whole, favours compounds with a hit. Of some 83,000 tested, about 20% had one in any assay. Active and inactive are the calls of the source. How the source made its calls: active means growth percent below 10; inactive means the rest.
Log the outcome using a class from Yes for active, No for inactive

Some solved entries appear below for comparison.
compound	assignedClass
O=C1/C(=C/c2ccccc2Br)COc2ccc(O)cc21	No
CCC(=C(c1ccc(OCCN2CCCCC2)cc1)c1ccc(OCCN2CCCCC2)cc1)c1ccc(Cl)cc1	Yes
CCOC(=O)n1ccn(C)c1=S	No
COCCNC(=O)Nc1ccc2nc(-c3cccs3)c(-c3cccs3)nc2c1	No

Query string: I would be grateful if you could indicate the recorded call for `c1ccc(Cn2cc3c(c2)-c2oncc2CC3)cc1` .
Result string: No

Query string: Do the same for `Nc1n[nH]c2cccc(C#Cc3cccc(NC(=O)c4cc(F)cc(C(F)(F)F)c4)c3)c12` please
Result string: No

Query string: Do the same for `CCOCCNC1=C(Cl)C(=O)c2ccccc2C1=O` please
Result string: No

Query string: Do the same for `CCCNc1nc2ccccc2c2c1S(=O)(=O)c1ccc(Cl)cc1C2=O` please
Result string: No

Query string: Do the same for `CSc1nc(N)c(NS(=O)(=O)c2ccc(C(C)=O)cc2)c(=O)[nH]1` please
Result string: No

Query string: Do the same for N#CC1=C(N)Oc2c(ccc3ccccc23)C1c1ccccc1 (stereo unspecified) please
Result string: No

Query string: Do the same for `COc1ccc(/C=N\Nc2nc(SCCC(C)C)nc(-c3ccc(OC)cc3)c2C#N)cc1` please
Result string: No

---

System: CCRF-CEM leukemia
Test: NCI-60 one-dose screen, 48 h (100 = growth as untreated, 0 = no growth, -100 = all killed)
Conditions: 10 µM unless noted
Compounds without any hit were thinned out: in the full panel of roughly 83,000, 20% have a hit.
endpointName: growth (%)
Answers are plain numbers, in %.

Give growth for all compounds that follow.
1. O=C(Nc1ccccc1O)c1ccc(CNC(=O)c2sccc2Nc2ccnc(C(F)(F)F)c2)cc1
2. N#Cc1nc(-c2ccc(Cl)cc2)oc1S(=O)(=O)N1CCN(c2ccc(F)cc2)CC1
3. N=C(N)c1ccc(-c2ccc(-c3ccc(Cl)c(Cl)c3)s2)nc1
4. CC(=O)O[C@@H]1C[C@]2(C(C)C)O[C@@]1(C)[C@@H]1CCC(C)=C1[C@@H]2OC(=O)/C=C/c1ccccc1
5. COC(=O)[C@]1(C)CCC[C@]2(C)[C@H]3C[C@H]4C(C(C)C)=C[C@]3(CC[C@H]21)[C@@H]1C(=O)CC[C@H](OCCC#N)[C@@H]14
6. O=C(NCCCl)Nc1ncccc1OCc1ccccc1
7. COc1ccc2c(c1)CC[C@H](O)/C2=C/c1cc(OC)c(OC)c(OC)c1
8. O=C(Nc1cccc(-c2ccc(Cl)c(C(F)(F)F)c2)c1)C1CCN(Cc2cccc3cccnc23)CC1

Result string:
[10.8, 3.82, -1.55, 84.9, 81.5, 106, 5.74, 4.08]

Query string: Requested read-out: growth. Entry: `O=C(CN1C(=O)S/C(=C\C(Cl)=C\c2ccccc2)C1=O)NCCc1ccc(O)cc1`
Result string: 6.23
